Assay: Temperature stability study in H2O
Format: physicochemical
Settings: 20° C., 15 min
Quantity measured: % Remaining (%)

Compound	Endpoint unit	Obs value
O=C(CCc1cccnc1)Oc1ccc([N+](=O)[O-])cc1 [Compound D, 4-Nitrophenyl-3-(pyridin-3-yl)propanoate]	%	97.54
O=C(CCc1cccnc1)Oc1c(F)c(F)cc(F)c1F	%	95.77
O=C(CCc1cccnc1)ON1C(=O)CCC1=O	%	87.24
O=C(CCc1cccnc1)Oc1c(F)cccc1F	%	99.63
O=C(CCc1cccnc1)Oc1c(Cl)cccc1Cl	%	100

* * *

Experiment: Temperature stability study in H2O
Assay type: physicochemical
Conditions: 20° C., 240 min
Quantity measured: % Remaining (%)

[P] O=C(CCc1cccnc1)Oc1ccc([N+](=O)[O-])cc1 [Compound D, 4-Nitrophenyl-3-(pyridin-3-yl)propanoate]
[Q] O=C(CCc1cccnc1)ON1C(=O)CCC1=O
Qu. Looking at P and Q , which one comes out lower in % Remaining terms? Give the chosen item's label as your response.
Ans. Q

* * *

Assay: Comparative active ester reactivity study with HOA nucleophile (benzhydroxamic acid)
Details: Benzhydroxamic Acid 1 eq., 240 min, 22±2° C.
Quantity measured: % Active Ester Remaining (%)

Recorded results for 2 compounds are shown here.
Compound	Endpoint unit	% Active Ester Remaining
O=C(CCc1cccnc1)Oc1ccc([N+](=O)[O-])cc1 [Compound D, 4-Nitrophenyl-3-(pyridin-3-yl)propanoate]	%	34.21
O=C(CCc1cccnc1)Oc1c(Cl)cccc1Cl	%	78.07

[a] O=C(CCc1cccnc1)Oc1c(F)cccc1F
[b] O=C(CCc1cccnc1)ON1C(=O)CCC1=O
[c] O=C(CCc1cccnc1)Oc1c(F)c(F)cc(F)c1F
Qu. Put the items in sequence by % Active Ester Remaining, from largest down. Write the labels in rank order as requested.
Ans. a, c, b
(a: 28.60%, c: 9.26%, b: 0.35%)

* * *

Assay: Temperature stability study in H2O
Type: physicochemical
Conditions: 20° C., 120 min
Quantity measured: % Remaining (%)

Recorded results for 3 compounds are shown here.
Compound	% Remaining (%)
O=C(CCc1cccnc1)Oc1c(F)cccc1F	98.12
O=C(CCc1cccnc1)Oc1c(F)c(F)cc(F)c1F	81.04
O=C(CCc1cccnc1)Oc1c(Cl)cccc1Cl	100

[P] O=C(CCc1cccnc1)Oc1ccc([N+](=O)[O-])cc1 [Compound D, 4-Nitrophenyl-3-(pyridin-3-yl)propanoate]
[Q] O=C(CCc1cccnc1)ON1C(=O)CCC1=O
Qu. Looking at P and Q , which one comes out lower in % Remaining terms? Give the chosen item's label as your response.
Ans. Q

* * *

Assay: Comparative active ester reactivity study with HOA nucleophile (N-hydroxy-N-methylbenzamide)
Conditions: N-Hydroxy-N-methylbenzamide 1 eq., 240 min, 22±2° C.
Quantity measured: % Active Ester Remaining (%)

Recorded results for 3 compounds are shown here.
Compound	Endpoint unit	% Active Ester Remaining
O=C(CCc1cccnc1)Oc1c(F)c(F)cc(F)c1F	%	37.80
O=C(CCc1cccnc1)Oc1c(Cl)cccc1Cl	%	92.22
O=C(CCc1cccnc1)Oc1c(F)cccc1F	%	35.97

[I] O=C(CCc1cccnc1)Oc1ccc([N+](=O)[O-])cc1 [Compound D, 4-Nitrophenyl-3-(pyridin-3-yl)propanoate]
[II] O=C(CCc1cccnc1)ON1C(=O)CCC1=O
Qu. Rank I against II by their % Active Ester Remaining values and give the higher one. Give the chosen item's label as your response.
Ans. I
(I: 41.73%, II: 4.21%)

* * *

Assay: pH stability study
Format: physicochemical
Details: pH 3 buffer, 20° C., 120 min
Quantity measured: % Remaining (%)

Molecule	Endpoint unit	% Remaining
O=C(CCc1cccnc1)Oc1c(Cl)cccc1Cl [Compound A]	%	100
O=C(CCc1cccnc1)Oc1c(F)cccc1F [Compound B]	%	98.69
O=C(CCc1cccnc1)Oc1c(F)c(F)cc(F)c1F [Compound C]	%	82.13

* * *

Test: Temperature stability study in H2O
Type: physicochemical
Settings: 20° C., 240 min
Quantity measured: % Remaining (%)

O=C(CCc1cccnc1)Oc1c(F)c(F)cc(F)c1F 70.85
O=C(CCc1cccnc1)Oc1c(F)cccc1F 96.98
O=C(CCc1cccnc1)Oc1c(Cl)cccc1Cl 100
